system: NCI-H23 lung; assay: NCI tumour cell line growth inhibition, 48 h

| compound | GI50 |
| --- | --- |
| Cl.[Pt].[c-]1ccccc1-c1ccccn1.c1ccc(P(c2ccccc2)C([PH+](c2ccccc2)c2ccccc2)[PH+](c2ccccc2)c2ccccc2)cc1 | 1190 nM |
| COc1ccc(-c2ccc3c(NC(=O)C4CC4)n[nH]c3n2)cc1 | > 25000 nM |
| CC1(C)CCC[C@]23C(=O)O[C@](O)(C(=O)C4=C[C@@](C)(/C=C/CCCc5ccc6ccc7cccc8ccc5c6c78)CC[C@@]42O)[C@@H]13 | 178 nM |
| C/C(=N\NC(N)=O)C(CN1CCCCC1)C(c1ccccc1)c1c(O)c2ccccc2oc1=O (stereo not given) | > 100000 nM |
| CCN(CC)CCN1C(=O)c2c(c(C)c3c(oc4cc(O)ccc43)c2C)C1=O | 1700 nM |

###

system: UO-31 renal; test: NCI tumour cell line growth inhibition, 48 h

| compound | GI50 |
| --- | --- |
| Cc1ccc(Cl)cc1Nc1nc(C(F)(F)F)ccc1C(=O)Nc1cccc(C(F)(F)F)c1 | 2.84 µM |
| C=CN1C(=O)OC(c2ccccc2)C1c1ccccc1 (centres undefined) | > 100 µM |
| COc1ccc(OC)c(-c2nc3sccn3c2/C=C2/C(=O)Nc3ccc(Cl)cc32)c1 | 23.6 µM |
| COC(=O)C[CH](C(=O)OC)[Ge]([CH3])([CH3])[S]c1ccccc1 (centres undefined) | 7.06 µM |

###

system: OVCAR-4 ovarian; test: NCI tumour cell line growth inhibition, 48 h

| compound | TGI |
| --- | --- |
| O=C(CC(=O)N1N=C(c2ccccc2)C(N=Nc2ccc(C(=O)O)cc2)C1=O)Nc1ccc(F)cc1 (configuration not stated) | > 100 µM |
| O=C(O)c1c(O)c2cc(Br)ccc2oc1=O | > 100 µM |
| S=c1nc[nH]c2c1ncn2Cc1ccco1 | > 100 µM |
| O=C(O)/C=C(/CC(=O)O)C(=O)O | 65.3 µM |
| NC(Cc1cc(I)c(O)c(I)c1)C(=O)O (configuration not stated) | 332 µM |
| CC1(C)CCC[C@]23C(=O)O[C@](O)(C(=O)C4=C[C@@](C)(/C=C/CCCc5ccc6ccc7cccc8ccc5c6c78)CC[C@@]42O)[C@@H]13 | 0.616 µM |
| CCC1(CC)C(=O)CC[C@@]2(C)C1=CC[C@H]1[C@@H]3CC[C@H](O)[C@@]3(C)CC[C@@H]12 | > 100 µM |
| Cc1csc2c1C(=O)c1ccsc1C2=O | 3.34 µM |
| Nc1ccc2c(c1)C(=O)c1ccccc1-2 | > 100 µM |
| O=C(c1ccc2ccccc2c1)C1S(=O)(=O)OCCOS1(=O)=O | > 100 µM |
| Oc1ccc2oc3ncc(Cl)c(-c4ccccc4)c3c2c1 | > 100 µM |
| Cc1cccc(C(C)(C)C)c1NC(=O)/C(Cc1nc2ccc([N+](=O)[O-])cc2[nH]c1=O)=N/NC(=O)C[N+](C)(C)C | > 100 µM |

###

test system: HOP-62 NSCLC; assay: NCI tumour cell line growth inhibition, 48 h
In this section, each of the compounds is paired with its reported TGI.

| compound | TGI |
| --- | --- |
| Cc1cc(C)cc(-n2c3nc(=O)n(C)c(=O)c-3nc3ccccc32)c1 | > 100 µM |
| O=C(CC(O)(C(F)(F)F)C(F)(F)F)C(CCCl)C(O)(C(F)(F)F)C(F)(F)F (stereo not drawn) | > 100 µM |
| CC1(C)O[C@@H](CO)[C@H]([C@@]23OC[C@H]4OC(C)(C)OC4[C@@H]2OC(C)(C)O3)O1 (stereo partly drawn) | > 100 µM |
| CCOC(=O)c1nc2c3c(ncn2n1)Oc1c(c(-c2ccccc2)nn1-c1ccccc1)C3c1ccc(Cl)cc1 (stereo not drawn) | > 100 µM |
| Cc1cnc[nH]c1=O | > 100 µM |
| CCOC1OCCCC1Br (stereo not drawn) | > 100 µM |
| CC1(C)COC(c2cccc(C3=NC(C)(C)CO3)c2Br)=N1 | > 100 µM |
| COc1ccc2c(c1)CCC1C2CC[C@@]2(C)C1CC[C@@]2(O)CNC(=O)/C=C/c1ccc(O)c(OC)c1 (stereo partly drawn) | > 100 µM |

###

tested on: HOP-92 NSCLC; experiment: NCI tumour cell line growth inhibition, 48 h
In this section, each of the molecules is paired with its reported TGI.

| molecule | TGI |
| --- | --- |
| Cc1cc(S(=O)(=O)Nc2nnc3c(C(F)(F)F)cc(Cl)cn23)c(S)cc1Cl | > 100 µM |
| O=C1NC(=O)/C(=C/C=C/c2ccccc2)S1 | > 81.1 µM |
| S=C(N/N=C\C=N/NC(=S)N1CCCCCC1)N1CCCCCC1 | > 100 µM |
| C/C(=C\c1ccc(Cl)cc1)C(C)(C)C(=O)O | > 100 µM |
| CNC(=O)CCC(NC(C)=O)C(=O)NC(Cc1ccc(NC(=O)CCCCC(C)=O)cc1)C(=O)NC(CCC(=O)NC)C(=O)NC (stereo unspecified) | > 100 µM |
| COP(=O)(OC)C(N)CCSC (stereo unspecified) | > 100 µM |

###

system: OVCAR-3 ovarian; assay: NCI tumour cell line growth inhibition, 48 h
In this section, each of the compounds is paired with its reported GI50.

| compound | GI50 |
| --- | --- |
| C=C(C=O)C1CC(=O)C(C(=O)OC)[C@@H]2O[C@@](C)(CC2=O)C[C@@H]2OC(=O)[C@]3(O[C@@H]23)[C@@H](C(=O)OC)C1 (some centres undefined) | 12800 nM |
| N#Cc1c(NC(=O)c2ccccc2)sc2c1CCC(=O)C2 | 1040 nM |
| Cl.[Pt].[c-]1ccccc1-c1ccccn1.c1ccc(P(c2ccccc2)C([PH+](c2ccccc2)c2ccccc2)[PH+](c2ccccc2)c2ccccc2)cc1 | 1590 nM |
| CN(C)c1ccc(/C=C2\C[C@H]3[C@@H]4CC=C5C[C@@H](N6CCCC6)CC[C@]5(C)[C@H]4CC[C@]3(C)[C@H]2O)cc1 | 2060 nM |
| CN(C)CCCNc1nn2c(=O)c3ccccc3nc2c2ccccc12 | 10500 nM |
| CC(=O)OCC1OC(OC2C(COC(C)=O)OC(OCCC[S-])C(OC(C)=O)C2OC(C)=O)C(OC(C)=O)C(OC(C)=O)C1OC(C)=O.[Au+].c1ccc(CN2[CH-]N(Cc3ccccc3)C(c3ccccc3)=C2c2ccccc2)cc1 (centres undefined) | 2620 nM |
| CCN1CCN(c2nc(NNC(=O)Cc3ccccc3)nc(N3CCN(C(c4ccccc4)c4ccccc4)CC3)n2)CC1 | 2000 nM |
| COc1ccc(-c2oc(=O)ccc2C#Cc2cc(OC)c(OC)c(OC)c2)cc1O | 20900 nM |
| CCN(CC)CCN1C(=O)c2c(c(C)c3c(oc4cc(O)ccc43)c2C)C1=O | 1780 nM |

###

system: SK-OV-3 ovarian; assay: NCI tumour cell line growth inhibition, 48 h; in the data active means GI50 below about 0.43 µM; inactive means the rest
Possible outcomes: active, inactive

| chemicalStructure | className |
| --- | --- |
| Cc1ccc2c(c1)C(=O)c1c-2n(CCCN)c(=O)c2cc([N+](=O)[O-])ccc12 | active |
| COc1ccc(-c2ccc(/C=C/C(=O)NO)cc2)cc1 | inactive |
| CN(C)CCCNc1nn2c(=O)c3ccccc3nc2c2ccccc12 | inactive |

###

In this section, each of the compounds is paired with its reported TGI.
test system: TK-10 renal; test: NCI tumour cell line growth inhibition, 48 h
metric: TGI

| compound | assayTarget | valueReported |
| --- | --- | --- |
| CC(=O)N(CN1C(=O)CCC1C(=O)O)c1ccccc1 (stereo not given) | TK-10 renal | > 100 µM |
| COC(=O)c1c[nH]c(=O)[nH]c1=O | TK-10 renal | > 100 µM |
| CC(=O)NC1C(CO)O[C@@H]2OC(C)(C)O[C@H]12 (stereo not given in full) | TK-10 renal | > 100 µM |
| O=C(N/N=C\c1cccc2ccccc12)Nc1ccc([N+](=O)[O-])cc1 | TK-10 renal | > 80.9 µM |
| O=C(Nn1c(-c2ccccc2)nc2ccccc2c1=O)c1ccccn1 | TK-10 renal | > 100 µM |
| O=C1/C(=C/c2ccccc2)CCc2ccc(Cl)nc21 | TK-10 renal | 32.7 µM |
| COc1ccc(/C=C/c2c(C(=O)/C=C/c3ccc(Cl)cc3)c(C)nc3ccccc23)cc1 | TK-10 renal | 4.95 µM |
| Cc1cnc[nH]c1=O | TK-10 renal | > 100 µM |
| CC1(C)CCC[C@]23C(=O)O[C@](O)(C(=O)C4=C[C@@](C)(/C=C/CCCc5ccc6ccc7cccc8ccc5c6c78)CC[C@@]42O)[C@@H]13 | TK-10 renal | 0.423 µM |
| CC#C[C@@]1(O)CCCC[C@@H]1O | TK-10 renal | > 100 µM |
